- assay target: hFYN (Homo sapiens, UniProt P06241)
measured parameter: IC50

[[record]]
chem_smiles = "Cc1cn(CCN2CCN(c3ccccc3-c3cc(C#N)cc(C(=O)NCCCN4CCCC4)c3)CC2)c2ccccc12"
measured_parameter = "IC50"
result = "> 20 µM"


###

- assay target: hFES (Homo sapiens, UniProt P07332)
- Sequence (P07332 whole entry): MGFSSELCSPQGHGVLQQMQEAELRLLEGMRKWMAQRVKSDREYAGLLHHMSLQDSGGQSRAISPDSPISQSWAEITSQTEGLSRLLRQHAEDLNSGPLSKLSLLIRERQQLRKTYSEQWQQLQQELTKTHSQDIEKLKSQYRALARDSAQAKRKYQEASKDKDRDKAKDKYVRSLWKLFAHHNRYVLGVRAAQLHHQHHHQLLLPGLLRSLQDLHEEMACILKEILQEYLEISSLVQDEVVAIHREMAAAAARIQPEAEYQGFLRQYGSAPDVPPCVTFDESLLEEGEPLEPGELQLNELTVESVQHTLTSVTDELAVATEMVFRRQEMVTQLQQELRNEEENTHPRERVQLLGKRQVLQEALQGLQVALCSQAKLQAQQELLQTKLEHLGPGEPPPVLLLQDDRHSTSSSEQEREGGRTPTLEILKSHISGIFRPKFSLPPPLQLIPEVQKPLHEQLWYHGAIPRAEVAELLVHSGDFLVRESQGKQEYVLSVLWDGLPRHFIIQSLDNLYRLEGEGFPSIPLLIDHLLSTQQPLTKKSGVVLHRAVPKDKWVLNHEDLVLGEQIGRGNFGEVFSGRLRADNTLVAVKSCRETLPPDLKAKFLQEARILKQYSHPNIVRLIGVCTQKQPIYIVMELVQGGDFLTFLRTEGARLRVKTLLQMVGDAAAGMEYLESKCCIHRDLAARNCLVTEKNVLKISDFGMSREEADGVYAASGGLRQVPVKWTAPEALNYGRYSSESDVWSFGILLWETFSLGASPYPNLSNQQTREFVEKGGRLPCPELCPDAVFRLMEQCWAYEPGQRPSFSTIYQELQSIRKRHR
measured parameter: IC50

[[record]]
chem_smiles = "Cc1cn(CCN2CCN(c3ccccc3-c3cc(C#N)cc(C(=O)NCCCN4CCCC4)c3)CC2)c2ccccc12"
measured_parameter = "IC50"
result = "> 20 µM"


###

- assay target: hMAK (Homo sapiens)
- Sequence (P20794 whole entry): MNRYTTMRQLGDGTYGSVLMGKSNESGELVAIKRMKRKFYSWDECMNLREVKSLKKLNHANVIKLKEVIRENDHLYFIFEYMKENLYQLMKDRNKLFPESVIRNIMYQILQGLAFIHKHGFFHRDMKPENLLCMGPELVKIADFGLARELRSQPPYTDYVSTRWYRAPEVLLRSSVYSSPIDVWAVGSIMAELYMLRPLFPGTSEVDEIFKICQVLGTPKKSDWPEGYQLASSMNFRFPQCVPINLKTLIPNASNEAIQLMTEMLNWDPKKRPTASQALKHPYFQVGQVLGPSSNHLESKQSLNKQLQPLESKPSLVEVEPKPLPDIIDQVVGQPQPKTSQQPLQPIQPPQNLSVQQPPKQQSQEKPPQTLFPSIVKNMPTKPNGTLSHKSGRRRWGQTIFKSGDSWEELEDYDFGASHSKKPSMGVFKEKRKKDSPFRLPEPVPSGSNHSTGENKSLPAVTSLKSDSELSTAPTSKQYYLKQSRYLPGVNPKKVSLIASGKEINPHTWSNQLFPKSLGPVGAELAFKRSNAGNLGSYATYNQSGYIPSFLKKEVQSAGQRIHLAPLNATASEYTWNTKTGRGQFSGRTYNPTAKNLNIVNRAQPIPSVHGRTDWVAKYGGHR
pIC50: −log10 of the molar value.
measured parameter: pIC50

[[record]]
chem_smiles = "Cc1cn(CCN2CCN(c3ccccc3-c3cc(C#N)cc(C(=O)NCCCN4CCCC4)c3)CC2)c2ccccc12"
result = "< 4.70"


###

- assay target: hDRAK2 (Homo sapiens)
- Sequence (O94768 whole entry): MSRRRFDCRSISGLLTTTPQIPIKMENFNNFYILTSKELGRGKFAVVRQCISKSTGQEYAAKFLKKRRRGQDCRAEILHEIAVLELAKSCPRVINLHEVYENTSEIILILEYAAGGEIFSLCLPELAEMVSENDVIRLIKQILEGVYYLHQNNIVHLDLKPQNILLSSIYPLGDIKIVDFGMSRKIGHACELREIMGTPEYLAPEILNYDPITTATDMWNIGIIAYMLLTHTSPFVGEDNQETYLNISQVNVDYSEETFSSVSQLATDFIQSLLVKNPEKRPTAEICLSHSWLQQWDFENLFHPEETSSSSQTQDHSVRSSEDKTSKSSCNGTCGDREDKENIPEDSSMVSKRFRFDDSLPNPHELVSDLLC
pIC50: −log10 of the molar value.
measured parameter: pIC50

[[record]]
chem_smiles = "Cc1cn(CCN2CCN(c3ccccc3-c3cc(C#N)cc(C(=O)NCCCN4CCCC4)c3)CC2)c2ccccc12"
assay_target = "hDRAK2 (Homo sapiens)"
result = "< 4.70"


###

- assay target: hABL1(pQ252H) (Homo sapiens, UniProt P00519, Q252H)
- experiment notes: KINOMEscan
pIC50: −log10 of the molar value.
measured parameter: pIC50

[[record]]
chem_smiles = "Cc1cn(CCN2CCN(c3ccccc3-c3cc(C#N)cc(C(=O)NCCCN4CCCC4)c3)CC2)c2ccccc12"
assay_target = "hABL1(pQ252H) (Homo sapiens, UniProt P00519, Q252H)"
result = "< 4.70"


###

- assay target: hRSK3(Kin.Dom.1-N-term) (Homo sapiens)
measured parameter: IC50

[[record]]
chem_smiles = "Cc1cn(CCN2CCN(c3ccccc3-c3cc(C#N)cc(C(=O)NCCCN4CCCC4)c3)CC2)c2ccccc12"
result = "> 20 µM"


###

Protein target, amino acids: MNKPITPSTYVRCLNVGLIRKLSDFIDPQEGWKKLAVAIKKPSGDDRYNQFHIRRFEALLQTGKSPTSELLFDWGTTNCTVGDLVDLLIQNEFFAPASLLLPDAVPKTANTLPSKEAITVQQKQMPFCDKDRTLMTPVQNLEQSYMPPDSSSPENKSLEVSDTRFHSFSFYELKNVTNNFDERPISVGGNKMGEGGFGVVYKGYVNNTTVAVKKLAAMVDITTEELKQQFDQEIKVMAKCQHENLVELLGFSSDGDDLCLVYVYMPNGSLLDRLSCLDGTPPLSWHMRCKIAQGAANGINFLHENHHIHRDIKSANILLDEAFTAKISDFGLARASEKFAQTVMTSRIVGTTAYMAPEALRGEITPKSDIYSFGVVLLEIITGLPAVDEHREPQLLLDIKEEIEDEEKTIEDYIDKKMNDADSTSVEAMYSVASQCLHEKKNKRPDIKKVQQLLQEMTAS
pIC50: −log10 of the molar value.
measured parameter: pIC50

[[record]]
molecule = "Cc1cn(CCN2CCN(c3ccccc3-c3cc(C#N)cc(C(=O)NCCCN4CCCC4)c3)CC2)c2ccccc12 [LLY-507]"
result = "< 4.70"


###

- assay target: hFGFR2 (Homo sapiens, UniProt P21802)
- Sequence (P21802 22-821): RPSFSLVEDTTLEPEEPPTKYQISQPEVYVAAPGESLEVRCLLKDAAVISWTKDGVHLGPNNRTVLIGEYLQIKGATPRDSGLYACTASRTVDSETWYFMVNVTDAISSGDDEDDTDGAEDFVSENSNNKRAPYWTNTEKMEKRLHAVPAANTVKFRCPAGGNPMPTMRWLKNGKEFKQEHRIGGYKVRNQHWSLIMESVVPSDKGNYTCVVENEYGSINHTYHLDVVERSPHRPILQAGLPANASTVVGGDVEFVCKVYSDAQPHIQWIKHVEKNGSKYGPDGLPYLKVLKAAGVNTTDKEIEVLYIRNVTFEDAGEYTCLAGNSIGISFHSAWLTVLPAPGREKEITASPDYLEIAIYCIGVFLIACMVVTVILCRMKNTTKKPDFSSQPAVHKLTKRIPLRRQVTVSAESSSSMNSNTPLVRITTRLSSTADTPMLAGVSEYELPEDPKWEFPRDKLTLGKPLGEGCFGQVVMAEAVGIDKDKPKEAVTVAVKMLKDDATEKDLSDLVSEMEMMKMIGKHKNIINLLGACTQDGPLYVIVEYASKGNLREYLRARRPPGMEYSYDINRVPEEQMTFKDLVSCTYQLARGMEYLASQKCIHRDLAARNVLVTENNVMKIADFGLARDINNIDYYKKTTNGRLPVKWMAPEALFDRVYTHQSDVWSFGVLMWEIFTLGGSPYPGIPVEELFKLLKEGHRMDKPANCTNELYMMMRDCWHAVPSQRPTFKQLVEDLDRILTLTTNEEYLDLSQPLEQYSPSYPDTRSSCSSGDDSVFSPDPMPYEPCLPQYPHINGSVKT
measured parameter: IC50

[[record]]
compound = "Cc1cn(CCN2CCN(c3ccccc3-c3cc(C#N)cc(C(=O)NCCCN4CCCC4)c3)CC2)c2ccccc12 [LLY-507]"
assay_target = "hFGFR2 (Homo sapiens, UniProt P21802)"
result = "> 20 µM"


###

- assay target: UniProt:Q9UK32
- Sequence (Q9UK32 426-683 limits assumed): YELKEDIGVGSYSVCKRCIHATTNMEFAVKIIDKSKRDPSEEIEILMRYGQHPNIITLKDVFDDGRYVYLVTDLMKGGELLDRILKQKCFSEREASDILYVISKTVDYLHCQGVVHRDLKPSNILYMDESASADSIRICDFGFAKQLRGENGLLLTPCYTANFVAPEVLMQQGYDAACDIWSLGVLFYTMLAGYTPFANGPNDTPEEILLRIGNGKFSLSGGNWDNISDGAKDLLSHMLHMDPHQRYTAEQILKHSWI
pIC50: −log10 of the molar value.
measured parameter: pIC50

[[record]]
chem_smiles = "Cc1cn(CCN2CCN(c3ccccc3-c3cc(C#N)cc(C(=O)NCCCN4CCCC4)c3)CC2)c2ccccc12"
measured_parameter = "pIC50"
result = "< 4.70"


###

- assay target: hCLK2 (Homo sapiens)
- Sequence (P49760 whole entry): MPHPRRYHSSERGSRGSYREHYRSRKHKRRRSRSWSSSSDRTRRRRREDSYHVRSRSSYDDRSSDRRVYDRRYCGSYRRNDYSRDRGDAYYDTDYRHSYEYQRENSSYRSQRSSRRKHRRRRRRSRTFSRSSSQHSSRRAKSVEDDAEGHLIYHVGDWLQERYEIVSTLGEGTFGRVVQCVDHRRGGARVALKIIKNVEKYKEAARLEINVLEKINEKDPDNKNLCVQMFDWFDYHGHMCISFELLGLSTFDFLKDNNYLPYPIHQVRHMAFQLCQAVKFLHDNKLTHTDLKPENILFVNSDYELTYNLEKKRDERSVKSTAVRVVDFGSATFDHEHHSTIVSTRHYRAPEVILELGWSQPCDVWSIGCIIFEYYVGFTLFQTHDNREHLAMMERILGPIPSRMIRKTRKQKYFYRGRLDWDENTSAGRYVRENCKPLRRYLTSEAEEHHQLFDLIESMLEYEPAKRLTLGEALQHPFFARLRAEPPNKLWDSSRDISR
pIC50: −log10 of the molar value.
measured parameter: pIC50

[[record]]
compound = "Cc1cn(CCN2CCN(c3ccccc3-c3cc(C#N)cc(C(=O)NCCCN4CCCC4)c3)CC2)c2ccccc12 [LLY-507]"
assay_target = "hCLK2 (Homo sapiens)"
result = "< 4.70"


###

- assay target: hEPHA4 (Homo sapiens, UniProt P54764)
- Sequence (P54764 20-986): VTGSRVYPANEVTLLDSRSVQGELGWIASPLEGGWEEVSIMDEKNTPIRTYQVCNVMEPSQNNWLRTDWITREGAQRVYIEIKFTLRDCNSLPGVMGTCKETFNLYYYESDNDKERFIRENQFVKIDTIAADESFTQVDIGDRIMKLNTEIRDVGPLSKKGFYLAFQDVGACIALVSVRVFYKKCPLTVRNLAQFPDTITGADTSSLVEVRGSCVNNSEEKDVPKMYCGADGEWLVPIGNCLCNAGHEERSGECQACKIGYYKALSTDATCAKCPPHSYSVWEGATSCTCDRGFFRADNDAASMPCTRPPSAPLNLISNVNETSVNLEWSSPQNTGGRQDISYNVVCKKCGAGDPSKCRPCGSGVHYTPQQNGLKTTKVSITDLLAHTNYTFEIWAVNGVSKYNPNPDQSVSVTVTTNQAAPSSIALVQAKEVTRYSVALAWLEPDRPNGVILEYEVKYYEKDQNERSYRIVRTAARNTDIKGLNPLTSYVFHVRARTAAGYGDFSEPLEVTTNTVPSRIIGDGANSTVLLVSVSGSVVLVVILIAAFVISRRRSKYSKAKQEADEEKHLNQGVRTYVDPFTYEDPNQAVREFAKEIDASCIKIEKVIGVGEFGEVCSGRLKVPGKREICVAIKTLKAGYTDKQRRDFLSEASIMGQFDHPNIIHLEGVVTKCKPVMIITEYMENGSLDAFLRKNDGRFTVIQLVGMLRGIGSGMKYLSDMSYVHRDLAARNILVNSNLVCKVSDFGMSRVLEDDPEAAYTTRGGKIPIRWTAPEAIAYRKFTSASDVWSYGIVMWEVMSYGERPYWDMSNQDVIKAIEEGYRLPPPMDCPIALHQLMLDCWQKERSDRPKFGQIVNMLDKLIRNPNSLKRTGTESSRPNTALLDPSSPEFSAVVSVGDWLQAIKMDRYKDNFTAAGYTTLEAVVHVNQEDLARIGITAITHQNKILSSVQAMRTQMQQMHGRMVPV
measured parameter: IC50

[[record]]
chem_smiles = "Cc1cn(CCN2CCN(c3ccccc3-c3cc(C#N)cc(C(=O)NCCCN4CCCC4)c3)CC2)c2ccccc12"
measured_parameter = "IC50"
result = "> 20 µM"


###

- assay target: hABL1(pH396P) (Homo sapiens, UniProt P00519, H396P)
- experiment notes: KINOMEscan
pIC50: −log10 of the molar value.
measured parameter: pIC50

[[record]]
chem_smiles = "Cc1cn(CCN2CCN(c3ccccc3-c3cc(C#N)cc(C(=O)NCCCN4CCCC4)c3)CC2)c2ccccc12"
measured_parameter = "pIC50"
result = "< 4.70"


###

- assay target: hSLK (Homo sapiens, UniProt Q9H2G2)
pIC50: −log10 of the molar value.
measured parameter: pIC50

[[record]]
chem_smiles = "Cc1cn(CCN2CCN(c3ccccc3-c3cc(C#N)cc(C(=O)NCCCN4CCCC4)c3)CC2)c2ccccc12"
result = "< 4.70"


###

Target protein (sequence): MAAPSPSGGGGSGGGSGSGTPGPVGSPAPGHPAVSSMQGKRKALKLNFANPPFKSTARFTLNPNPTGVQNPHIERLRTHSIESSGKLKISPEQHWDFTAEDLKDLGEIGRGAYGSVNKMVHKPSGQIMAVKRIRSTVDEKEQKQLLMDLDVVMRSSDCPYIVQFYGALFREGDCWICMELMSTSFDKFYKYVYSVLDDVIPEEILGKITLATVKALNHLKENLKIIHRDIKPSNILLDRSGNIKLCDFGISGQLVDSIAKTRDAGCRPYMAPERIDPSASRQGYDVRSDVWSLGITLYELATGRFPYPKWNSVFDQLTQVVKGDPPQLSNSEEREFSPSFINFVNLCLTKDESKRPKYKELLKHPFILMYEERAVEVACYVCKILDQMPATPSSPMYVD
measured parameter: IC50

[[record]]
compound = "Cc1cn(CCN2CCN(c3ccccc3-c3cc(C#N)cc(C(=O)NCCCN4CCCC4)c3)CC2)c2ccccc12 [LLY-507]"
result = "> 20 µM"


###

- assay target: hEPHB1 (Homo sapiens)
- Construct: purchased DiscoverX
- Sequence (P54762 18-984): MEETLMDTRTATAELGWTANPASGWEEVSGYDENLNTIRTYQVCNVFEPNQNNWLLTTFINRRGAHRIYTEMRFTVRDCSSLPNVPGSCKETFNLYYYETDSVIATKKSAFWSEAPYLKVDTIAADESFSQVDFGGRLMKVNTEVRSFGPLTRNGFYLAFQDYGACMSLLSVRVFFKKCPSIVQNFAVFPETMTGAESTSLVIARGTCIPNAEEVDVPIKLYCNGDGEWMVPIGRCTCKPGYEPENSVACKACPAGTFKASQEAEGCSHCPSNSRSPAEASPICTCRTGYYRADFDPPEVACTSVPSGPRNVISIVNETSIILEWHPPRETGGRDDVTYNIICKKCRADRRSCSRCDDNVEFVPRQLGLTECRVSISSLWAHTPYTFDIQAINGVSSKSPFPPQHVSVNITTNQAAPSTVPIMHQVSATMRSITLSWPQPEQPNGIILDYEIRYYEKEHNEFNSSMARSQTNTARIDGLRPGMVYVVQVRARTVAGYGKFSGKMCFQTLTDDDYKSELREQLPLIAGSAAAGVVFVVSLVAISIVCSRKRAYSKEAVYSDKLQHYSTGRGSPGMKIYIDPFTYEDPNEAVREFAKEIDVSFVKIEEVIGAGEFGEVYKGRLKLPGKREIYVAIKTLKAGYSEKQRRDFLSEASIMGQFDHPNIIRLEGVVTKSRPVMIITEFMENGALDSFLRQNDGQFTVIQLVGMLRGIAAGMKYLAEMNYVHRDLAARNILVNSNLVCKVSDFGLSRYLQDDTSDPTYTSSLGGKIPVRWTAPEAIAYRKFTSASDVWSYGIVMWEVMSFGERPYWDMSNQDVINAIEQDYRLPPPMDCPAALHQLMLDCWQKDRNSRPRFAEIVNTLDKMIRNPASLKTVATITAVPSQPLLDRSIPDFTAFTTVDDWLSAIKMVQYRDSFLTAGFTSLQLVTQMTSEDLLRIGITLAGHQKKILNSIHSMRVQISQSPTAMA
- experiment notes: KINOMEscan
- Type: binding
pIC50: −log10 of the molar value.
measured parameter: pIC50

[[record]]
compound = "Cc1cn(CCN2CCN(c3ccccc3-c3cc(C#N)cc(C(=O)NCCCN4CCCC4)c3)CC2)c2ccccc12 [LLY-507]"
measured_parameter = "pIC50"
result = "< 4.70"


###

- assay target: hEPHB3 (Homo sapiens)
- Sequence (P54753 34-998): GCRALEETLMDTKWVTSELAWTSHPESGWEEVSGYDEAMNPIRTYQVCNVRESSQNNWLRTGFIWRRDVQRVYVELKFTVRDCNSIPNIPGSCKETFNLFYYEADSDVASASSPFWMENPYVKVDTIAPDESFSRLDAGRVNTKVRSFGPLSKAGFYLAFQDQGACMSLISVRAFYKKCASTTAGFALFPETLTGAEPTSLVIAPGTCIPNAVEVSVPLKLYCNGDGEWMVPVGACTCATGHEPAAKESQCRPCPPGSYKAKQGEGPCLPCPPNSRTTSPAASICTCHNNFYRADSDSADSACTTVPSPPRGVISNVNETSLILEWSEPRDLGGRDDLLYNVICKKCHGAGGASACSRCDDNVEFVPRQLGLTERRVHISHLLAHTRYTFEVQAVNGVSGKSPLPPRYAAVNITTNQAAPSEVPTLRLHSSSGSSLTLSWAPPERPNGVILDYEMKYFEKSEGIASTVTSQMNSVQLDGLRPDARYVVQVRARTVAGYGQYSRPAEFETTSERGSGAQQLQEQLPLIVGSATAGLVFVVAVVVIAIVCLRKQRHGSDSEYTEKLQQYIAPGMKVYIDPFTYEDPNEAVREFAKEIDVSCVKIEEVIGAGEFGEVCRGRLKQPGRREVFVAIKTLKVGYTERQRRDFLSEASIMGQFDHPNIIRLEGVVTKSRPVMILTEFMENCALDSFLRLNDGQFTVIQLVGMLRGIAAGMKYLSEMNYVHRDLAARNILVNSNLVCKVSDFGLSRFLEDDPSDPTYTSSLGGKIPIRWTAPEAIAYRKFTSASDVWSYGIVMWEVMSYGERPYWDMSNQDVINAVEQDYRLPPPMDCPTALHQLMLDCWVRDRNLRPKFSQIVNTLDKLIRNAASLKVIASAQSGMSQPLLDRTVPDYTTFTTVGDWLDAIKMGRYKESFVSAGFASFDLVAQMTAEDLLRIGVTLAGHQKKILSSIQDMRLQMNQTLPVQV
pIC50: −log10 of the molar value.
measured parameter: pIC50

[[record]]
chem_smiles = "Cc1cn(CCN2CCN(c3ccccc3-c3cc(C#N)cc(C(=O)NCCCN4CCCC4)c3)CC2)c2ccccc12"
result = "< 4.70"

